As a worked illustration, we turn to pIC50 data collected for Aurora kinase B (Homo sapiens, UniProt Q96GD4).
Please report pIC50 as the negative decimal logarithm of the molar concentration, giving only the number.

COC[C@@H]1CCCN1C(=O)c1cc(Nc2ncc3cnn([C@@H]4C[C@H]5C[C@H]5C4)c3n2)cn1C	8.30
Cn1cc(Nc2ncc3cnn(C4CCC(C)(C)CC4)c3n2)cc1C(N)=O	8.30
Cn1cc(Nc2ncc3cnn([C@H]4CC[C@H]5CCC[C@H]54)c3n2)cc1C(N)=O	7.92
Cn1cc(Nc2ncc3cnn([C@@H]4C[C@H]5C[C@H]5C4)c3n2)cc1C(=O)N1CCC[C@H]1CO	8.52

Field pIC50 (system: Aurora kinase B (Homo sapiens, UniProt Q96GD4)) for entry `Cn1cc(Nc2ncc3cnn([C@@H]4C[C@H]5C[C@H]5C4)c3n2)cc1C(N)=O` = 8.40

Field pIC50 (system: Aurora kinase B (Homo sapiens, UniProt Q96GD4)) for entry `Cn1cc(Nc2ncc3cnn([C@@H]4C[C@H]5C[C@H]5C4)c3n2)cc1C(=O)N1CCCC1` = 7.40

Field pIC50 (system: Aurora kinase B (Homo sapiens, UniProt Q96GD4)) for entry `C[C@@H]1CCCN1C(=O)c1cc(Nc2ncc3cnn([C@@H]4C[C@H]5C[C@H]5C4)c3n2)cn1C` = 8.40

Field pIC50 (system: Aurora kinase B (Homo sapiens, UniProt Q96GD4)) for entry `Cn1cc(Nc2ncc3cnn([C@@H]4C[C@H]5C[C@H]5C4)c3n2)cc1C(=O)N1CCC[C@H]1CN1CCOCC1` = 8.40

Field pIC50 (system: Aurora kinase B (Homo sapiens, UniProt Q96GD4)) for entry `Cn1cc(Nc2ncc3cnn(C4CCC5(CC4)CC5)c3n2)cc1C(N)=O` = 8.30

----------
As a worked illustration, we turn to pIC50 data collected for Cyclin-dependent kinase 1 (Homo sapiens, UniProt P06493).
Please report pIC50 as the negative decimal logarithm of the molar concentration, giving only the number.

// below: answered molecules
Cn1cc(Nc2ncc3cnn([C@@H]4C[C@H]5C[C@H]5C4)c3n2)cc1C(=O)N1CCC[C@H]1CN1CCOCC1	7.68
Cn1cc(Nc2ncc3cnn([C@@H]4CC[C@H]5CCC[C@H]54)c3n2)cc1C(N)=O	7.89
Cn1cc(Nc2ncc3cnn(C4CCCCCC4)c3n2)cc1C(N)=O	7.82
Cn1cc(Nc2ncc3cnn([C@@H]4C[C@H]5C[C@H]5C4)c3n2)cc1C(=O)N1CCC[C@H]1CN1CCCC1	7.33
Cn1cc(Nc2ncc3cnn([C@@H]4C[C@H]5C[C@H]5C4)c3n2)cc1C(=O)N1CCCC1	7.39

Field pIC50 (system: Cyclin-dependent kinase 1 (Homo sapiens, UniProt P06493)) for entry Cn1cc(Nc2ncc3cnn(C4CCC5(CC5)C4)c3n2)cc1C(N)=O (stereo not drawn) = 7.30

Field pIC50 (system: Cyclin-dependent kinase 1 (Homo sapiens, UniProt P06493)) for entry `COC[C@@H]1CCCN1C(=O)c1cc(Nc2ncc3cnn([C@@H]4C[C@H]5C[C@H]5C4)c3n2)cn1C` = 7.66

Field pIC50 (system: Cyclin-dependent kinase 1 (Homo sapiens, UniProt P06493)) for entry `COC[C@H]1CCCN1C(=O)c1cc(Nc2ncc3cnn([C@@H]4C[C@H]5C[C@H]5C4)c3n2)cn1C` = 6.82

----------
biological target: Cyclin-dependent kinase 1 (Homo sapiens); experiment: Inhibition of CDK1
Sequence (P06493 whole entry): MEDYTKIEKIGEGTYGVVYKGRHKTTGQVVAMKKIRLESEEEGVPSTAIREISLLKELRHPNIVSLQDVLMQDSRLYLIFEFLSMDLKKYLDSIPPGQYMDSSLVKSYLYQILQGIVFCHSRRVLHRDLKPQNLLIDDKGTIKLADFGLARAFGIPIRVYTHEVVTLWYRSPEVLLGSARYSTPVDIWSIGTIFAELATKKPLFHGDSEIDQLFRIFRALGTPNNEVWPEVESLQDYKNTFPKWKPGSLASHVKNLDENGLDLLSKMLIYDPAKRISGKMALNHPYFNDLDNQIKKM
IC50 by entry:
Report as a plain number; the unit nM is understood.

Lookup result for `Cn1cc(Nc2ncc3cnn([C@@H]4C[C@H]5C[C@H]5C4)c3n2)cc1C(N)=O` ; measured IC50: 24

Lookup result for `CNC[C@@H]1CCCN1C(=O)c1cc(Nc2ncc3cnn([C@@H]4C[C@H]5C[C@H]5C4)c3n2)cn1C` ; measured IC50: 1200

Lookup result for `C[C@@H]1CCCN1C(=O)c1cc(Nc2ncc3cnn([C@@H]4C[C@H]5C[C@H]5C4)c3n2)cn1C` ; measured IC50: 40

----------
assay: AUC in mouse at 25 mg/kg, ip; assay type: ADME, organism-based; parameters: dose 25 mg/kg, route intraperitoneal; conditions: plasma
readout-kind: AUC (ng·h/mL)
Report as a plain number; the unit ng·h/mL is understood.

Lookup result for `COC[C@@H]1CCCN1C(=O)c1cc(Nc2ncc3cnn([C@@H]4C[C@H]5C[C@H]5C4)c3n2)cn1C` ; measured AUC: 6420

----------
assay: AUC in rat at 4 mg/kg, iv; assay type: ADME, organism-based; design: dose 4 mg/kg, route intravenous; details: plasma
readout-kind: AUC (ng·h/mL)
Report as a plain number; the unit ng·h/mL is understood.

Lookup result for `COC[C@@H]1CCCN1C(=O)c1cc(Nc2ncc3cnn([C@@H]4C[C@H]5C[C@H]5C4)c3n2)cn1C` ; measured AUC: 1230

----------
As a worked illustration, we turn to pIC50 data collected for Aurora kinase A (Homo sapiens).
Please report pIC50 as the negative decimal logarithm of the molar concentration, giving only the number.

Cn1cc(Nc2ncc3cnn(C4CCC5(CC5)C4)c3n2)cc1C(N)=O (stereo unspecified)	6.82
Cn1cc(Nc2ncc3cnn(C4CCC5(CC4)CC5)c3n2)cc1C(N)=O	7.40
Cn1cc(Nc2ncc3cnn(C4CCC(C)(C)CC4)c3n2)cc1C(N)=O	7.52
CNC[C@@H]1CCCN1C(=O)c1cc(Nc2ncc3cnn([C@@H]4C[C@H]5C[C@H]5C4)c3n2)cn1C	7.10
Cn1cc(Nc2ncc3cnn(C4C5CC6CC(C5)CC4C6)c3n2)cc1C(N)=O (stereo unspecified)	7.60
Cn1cc(Nc2ncc3cnn([C@H]4CC[C@H]5CCC[C@H]54)c3n2)cc1C(N)=O	7.68
COC[C@@H]1CCCN1C(=O)c1cc(Nc2ncc3cnn([C@@H]4C[C@H]5C[C@H]5C4)c3n2)cn1C	8.40
COC[C@H]1CCCN1C(=O)c1cc(Nc2ncc3cnn([C@@H]4C[C@H]5C[C@H]5C4)c3n2)cn1C	7.80

Field pIC50 (system: Aurora kinase A (Homo sapiens)) for entry `Cn1cc(Nc2ncc3cnn([C@@H]4C[C@H]5C[C@H]5C4)c3n2)cc1C(=O)N1CCC[C@H]1CO` = 8.40

Field pIC50 (system: Aurora kinase A (Homo sapiens)) for entry `CC(C)n1ncc2cnc(Nc3cc(C(N)=O)n(C)c3)nc21` = 6.64

Field pIC50 (system: Aurora kinase A (Homo sapiens)) for entry `Cn1cc(Nc2ncc3cnn([C@@H]4C[C@H]5C[C@H]5C4)c3n2)cc1C(=O)N1CCC[C@H]1CN1CCOCC1` = 8.52

----------
test: Metabolic stability in mouse liver microsome assessed as ratio of clearance to hepatic blood flow; assay type: ADME; conditions: liver microsomes, read-out: QH
yes means recorded hepatic extraction ratio is 0.8 or above; no means it is below 0.8.

The following compounds have reported results that may help.
Cn1cc(Nc2ncc3cnn(C4C5CC6CC(C5)CC4C6)c3n2)cc1C(N)=O (centres undefined)	yes
Cn1cc(Nc2ncc3cnn(C4CCCCCC4)c3n2)cc1C(N)=O	yes
Cn1cc(Nc2ncc3cnn(C4CCC5(CC5)C4)c3n2)cc1C(N)=O (centres undefined)	yes
Cn1cc(Nc2ncc3cnn([C@@H]4C[C@H]5C[C@H]5C4)c3n2)cc1C(N)=O	no
Cn1cc(Nc2ncc3cnn([C@@H]4CC[C@H]5CCC[C@H]54)c3n2)cc1C(N)=O	yes

Decide: is the reported value of hepatic extraction ratio for `Cn1cc(Nc2ncc3cnn(C4CCC(C)(C)CC4)c3n2)cc1C(N)=O` equal to or greater than 0.8?
yes

Decide: is the reported value of hepatic extraction ratio for `Cn1cc(Nc2ncc3cnn(C4CCC5(CC4)CC5)c3n2)cc1C(N)=O` equal to or greater than 0.8?
yes

Decide: is the reported value of hepatic extraction ratio for `Cn1cc(Nc2ncc3cnn([C@H]4CC[C@H]5CCC[C@H]54)c3n2)cc1C(N)=O` equal to or greater than 0.8?
no

Decide: is the reported value of hepatic extraction ratio for `CC(C)n1ncc2cnc(Nc3cc(C(N)=O)n(C)c3)nc21` equal to or greater than 0.8?
no

----------
system: HCT-116; assay: Cytotoxicity against human HCT116 cells after 5 days by MTS assay; type: functional, cell-based; settings: HCT-116, 120 h
IC50 by entry:

// below: answered compounds
Cn1cc(Nc2ncc3cnn(C4CCCCCC4)c3n2)cc1C(N)=O	0.14 µM
CNC[C@@H]1CCCN1C(=O)c1cc(Nc2ncc3cnn([C@@H]4C[C@H]5C[C@H]5C4)c3n2)cn1C	0.15 µM
CC(C)n1ncc2cnc(Nc3cc(C(N)=O)n(C)c3)nc21	1 µM
Cn1cc(Nc2ncc3cnn(C4CCC5(CC4)CC5)c3n2)cc1C(N)=O	0.12 µM
Cn1cc(Nc2ncc3cnn([C@@H]4C[C@H]5C[C@H]5C4)c3n2)cc1C(=O)N1CCC[C@@H]1CO	0.17 µM

Lookup result for `O=C(O)c1ccc(Nc2ncc3c(n2)-c2ccc(Cl)cc2C(c2c(F)cccc2F)=NC3)cc1` ; measured IC50: 0.69 µM
